System: Oryza sativa
Assay: Growth promoting activity in Oryza sativa (rice) assessed as increase in root length at 1 x 10^-3 M relative to control
Type: functional, organism-based
Active and inactive are the calls of the source. No cut-off for these calls is given here.

# Molecule, Target of assay, Activity
records = [
    ("Cn1cc(C(CC(=O)O)C(F)(F)F)c2ccccc21 (racemic)", "Oryza sativa", "inactive"),
    ("Cc1ccc2c(C(CC(=O)O)C(F)(F)F)c[nH]c2c1 (racemic)", "Oryza sativa", "inactive"),
    ("O=C(O)CC(c1c[nH]c2ccccc12)C(F)(F)F (racemic)", "Oryza sativa", "inactive"),
]
